propertyLabel: melting point

# count of solved cases: 4
| substanceSmiles | melting point |
| --- | --- |
| Cc1oc(-c2ccccc2)nc1COc1ccc(Cn2cc(CCC(=O)O)c(-c3cccs3)n2)cc1 | 172 to 173 °C |
| COc1cc(CCCC#N)ccc1OCc1nc(-c2ccco2)oc1C | 94 to 95 °C |
| COc1ccccc1OC(=O)c1cnoc1C | 108 to 111 °C |
| CCCCn1ncc(/C=C(\Cc2cc3c(cc2OC)OCO3)C(=O)O)c1-c1ccc(OC)cc1OCc1ccccc1C(=O)O | 213 to 214 °C |

Query compound follows.
### Prompt Supply melting point value. Item: COc1ccc(CN2CCC(c3cn(Cc4ccc(Cl)s4)c4cnccc34)CC2)cc1C(=O)O
### Response 125 to 127 °C
